# Tested on: synthetic oligopeptides
# Assay type: biochemical
# Cond: substrate […] (SEQ ID NO:5), 4 mM oligopeptide, pH 7.5, 37° C.
Reported property: Specific activity (unit/mg)

molecule="MetAP-*TG (protein) AISIKTPEDIEKMRVAGRLAAEVLEMIEPYVKPGVSTGELDRICNDYIVNEQHAVSACLGYHGYPKSVCISINEVVCHGIPDDAKLLKDGDIVNIDVTVIKDGFHGDTSKMFIVGKPTIMGERLCRITQESLYLALRMVKPGINLREIGAAIQKFVEAEGFSVVREYCGHGIGRGFHEEPQVLHYDSRETNVVLKPGMTFTIEPTVNAGKKEIRTMKDGWTVKTKDRSLSAGYEHTIVVTDNGCEILTLRKDDTIPAIISHDE" reported_property="Specific activity (unit/mg)" measured=73
molecule="MetAP-GTG (protein) AISIKTPEDIEKMRVAGRLAAEVLEMIEPYVKPGVSTGELDRICNDYIVNEQHAVSACLGYHGYPKSVCISINEVVCHGIPDDAKLLKDGDIVNIDVTVIKDGFHGDTSKMFIVGKPTIMGERLCRITQESLYLALRMVKPGINLREIGAAIQKFVEAEGFSVVREGCGHGIGRGFHEEPQVLHYDSRETNVVLKPGMTFTIEPTVNAGKKEIRTMKDGWTVKTKDRSLSAGYEHTIVVTDNGCEILTLRKDDTIPAIISHDE" reported_property="Specific activity (unit/mg)" measured=9.80
molecule="MetAP-*GG (protein) AISIKTPEDIEKMRVAGRLAAEVLEMIEPYVKPGVSTGELDRICNDYIVNEQHAVSACLGYHGYPKSVCISINEVVCHGIPDDAKLLKDGDIVNIDVTVIKDGFHGDTSKMFIVGKPTIMGERLCRITQESLYLALRMVKPGINLREIGAAIQKFVEAEGFSVVREYCGHGIGRGFHEEPQVLHYDSRETNVVLKPGMTFTIEPGVNAGKKEIRTMKDGWTVKTKDRSLSAGYEHTIVVTDNGCEILTLRKDDTIPAIISHDE" reported_property="Specific activity (unit/mg)" measured=3.28
molecule="MetAP-YMQ: wild type E. coli Met aminopeptidase (SEQ ID NO:1) (protein, listed as Escherichia coli) MAISIKTPEDIEKMRVAGRLAAEVLEMIEPYVKPGVSTGELDRICNDYIVNEQHAVSACLGYHGYPKSVCISINEVVCHGIPDDAKLLKDGDIVNIDVTVIKDGFHGDTSKMFIVGKPTIMGERLCRITQESLYLALRMVKPGINLREIGAAIQKFVEAEGFSVVREYCGHGIGRGFHEEPQVLHYDSRETNVVLKPGMTFTIEPMVNAGKKEIRTMKDGWTVKTKDRSLSAQYEHTIVVTDNGCEILTLRKDDTIPAIISHDE" reported_property="Specific activity (unit/mg)" measured=85
molecule="MetAP-*TT (protein) AISIKTPEDIEKMRVAGRLAAEVLEMIEPYVKPGVSTGELDRICNDYIVNEQHAVSACLGYHGYPKSVCISINEVVCHGIPDDAKLLKDGDIVNIDVTVIKDGFHGDTSKMFIVGKPTIMGERLCRITQESLYLALRMVKPGINLREIGAAIQKFVEAEGFSVVREYCGHGIGRGFHEEPQVLHYDSRETNVVLKPGMTFTIEPTVNAGKKEIRTMKDGWTVKTKDRSLSATYEHTIVVTDNGCEILTLRKDDTIPAIISHDE" reported_property="Specific activity (unit/mg)" measured=1.00
